Data origin, for the record: patent US20210139581A1

# Target: T1, human CD33 (human, UniProt P20138 18-259, limits assumed)
# T1 construct: Human CD33 immobilized on the BLI sensor tip or the BIAcore C1 chip; also called Siglec-3
# T1 sequence (P20138 18-259 limits assumed): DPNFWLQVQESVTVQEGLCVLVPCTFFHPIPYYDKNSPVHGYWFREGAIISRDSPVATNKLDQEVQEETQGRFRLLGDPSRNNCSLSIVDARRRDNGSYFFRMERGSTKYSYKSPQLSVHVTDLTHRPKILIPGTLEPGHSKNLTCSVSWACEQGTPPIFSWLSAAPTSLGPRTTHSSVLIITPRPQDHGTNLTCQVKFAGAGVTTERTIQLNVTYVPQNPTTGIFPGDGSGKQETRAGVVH
# Method: SPR (BIAcore), Fab over CD33 on C1 chip
# Protocol: The affinity parameters for 10 of the 88 humanized antibodies (AB-H1, AB-H3, AB-H6, AB-H11, AB-H22, AB-H24, AB-H26, AB-H63, AB-H64, and AB-H71) were measured in a separate experiment by a more sensitive technique, surface plasmon resonance (BIAcore), and compared to Chimeric Ab and Chimeric Ab #2. […] The Fabs were measured at 5 concentrations: a high concentration of 27 nM and 3-fold serial dilutions. […]
Consider the following binders and their measured Fold Change to AB-H64 readings.
// note: answer is a bare numeric in fold

Example results:
Binder: AB-64.6 (antibody, V domains shown) VH: QVQLVQSGAEVKKPGASVKISCKASGYTFTDYNYHWVRQAPGQGLEWIGFIYPSNGITGYAQKFQGRATLTVDNSTSTAYMELSSLRSEDTAVYYCARSDVDYFDYWGQGTLLTVSS VL: DIVLTQSPDSLAVSLGERATINCRASQDVSTSTYSYMHWYQQKPGQPPKLLIKYASFLESGVPDRFSGSGSGTDFTLTISSLQAEDVAVYYCQHSWEIPLTFGQGTKLEIK
U: fold
Fold Change to AB-H64: 341
--
Binder: AB-64.4 (antibody, V domains shown) VH: QVQLVQSGAEVKKPGASVKISCKASGYTFTDYNLHWVRQAPGQGLEWIGFIYPSNGITGYAQKFQGRATLTVDNSTSTAYMELSSLRSEDTAVYYCARSDVDYFDYWGQGTLLTVSS VL: DIVLTQSPDSLAVSLGERATINCRASQDVSTSTYSYMHWYQQKPGQPPKLLIKYASYLESGVPDRFSGSGSGTDFTLTISSLQAEDVAVYYCEHSWEIPLTFGQGTKLEIK
U: fold
Fold Change to AB-H64: 586
--
Binder: AB-64.7 (antibody, V domains shown) VH: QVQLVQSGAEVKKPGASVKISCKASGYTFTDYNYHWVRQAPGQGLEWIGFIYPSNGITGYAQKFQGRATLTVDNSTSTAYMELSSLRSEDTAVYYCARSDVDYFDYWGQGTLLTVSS VL: DIVLTQSPDSLAVSLGERATINCRASQSVGTSTYSYMHWYQQKPGQPPKLLIKYASNLNSGVPDRFSGSGSGTDFTLTISSLQAEDVAVYYCQHSEEIPLTFGQGTKLEIK
U: fold
Fold Change to AB-H64: 216
--
Binder: AB-64.1.8 (antibody, V domains shown, Variant of AB-64.1) VH: QVQLVQSGAEVKKPGASVKISCKASGYTFTDYNLHWVRQAPGQGLEWIGFIYPSNQITGYAQKFQGRATLTVDNSASTAYMELSSLRSEDTAVYYCARSDVDYFDYWGQGTLLTVSS VL: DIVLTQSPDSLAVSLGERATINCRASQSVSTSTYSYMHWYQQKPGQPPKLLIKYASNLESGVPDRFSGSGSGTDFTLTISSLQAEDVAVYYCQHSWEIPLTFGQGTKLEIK
U: fold
Fold Change to AB-H64: 12.3
--
Binder: AB-64.1.2 (antibody, V domains shown, Variant of AB-64.1) VH: QVQLVQSGAEVKKPGASVKISCKASGYTFTDYNLHWVRQAPGQGLEWIGFIYPSNRITGYAQKFQGRATLTVDNSTSTAYMELSSLRSEDTAVYYCARSDVDYFDYWGQGTLLTVSS VL: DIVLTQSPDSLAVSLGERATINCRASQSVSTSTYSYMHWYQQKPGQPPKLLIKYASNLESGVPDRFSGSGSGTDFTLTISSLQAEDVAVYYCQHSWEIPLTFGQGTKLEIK
U: fold
Fold Change to AB-H64: 11.6
--
Binder: AB-64.1 (antibody, V domains shown) VH: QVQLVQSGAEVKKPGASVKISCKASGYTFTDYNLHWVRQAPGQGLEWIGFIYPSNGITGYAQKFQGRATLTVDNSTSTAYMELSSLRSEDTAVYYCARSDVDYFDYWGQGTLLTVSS VL: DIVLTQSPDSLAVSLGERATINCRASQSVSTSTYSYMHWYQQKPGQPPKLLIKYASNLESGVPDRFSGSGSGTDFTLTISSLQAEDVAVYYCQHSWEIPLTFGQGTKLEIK
U: fold
Fold Change to AB-H64: 20.4

Q: Record request: Fold Change to AB-H64 value, item AB-64.8 (antibody, V domains shown) VH: QVQLVQSGAEVKKPGASVKISCKASGYTFTDYNYHWVRQAPGQGLEWIGFIYPSNGITGYAQKFQHRATLTVDNSTSTAYMELSSLRSEDTAVYYCARSDVDYFDYWGQGTLLTVSS VL: DIVLTQSPDSLAVSLGERATINCRASQDVSTSTYSYMHWYQQKPGQPPKLLIKYASNLESGVPDRFSGSGSGTDFTLTISSLQAEDVAVYYCQHSWEIPLTFGQGTKLEIK
Result: 321

Q: I'd like to know its Fold Change to AB-H64. The binder in question is AB-64.2 (antibody, V domains shown) VH: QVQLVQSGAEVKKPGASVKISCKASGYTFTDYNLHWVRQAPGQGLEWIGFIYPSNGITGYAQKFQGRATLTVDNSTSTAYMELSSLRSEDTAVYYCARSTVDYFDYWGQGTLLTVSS VL: DIVLTQSPDSLAVSLGERATINCRVSQDVSTSTYSYMHWYQQKPGQPPKLLIKYASNLESGVPDRFSGSGSGTDFTLTISSLQAEDVAVYYCQHSWEIPLTFGQGTKLEIK
Result: 46.9

Q: What Fold Change to AB-H64 value was documented for this binder, AB-64.3 (antibody, V domains shown) VH: QVQLVQSGAEVKKPGASVKISCKASGYTFTDYNLHWVRQAPGQGLEWIGFIYPSNGITGYAEKFEGRATLTVDNSTSTAYMELSSLRSEDTAVYYCARSFVDYFDYWGQGTLLTVSS VL: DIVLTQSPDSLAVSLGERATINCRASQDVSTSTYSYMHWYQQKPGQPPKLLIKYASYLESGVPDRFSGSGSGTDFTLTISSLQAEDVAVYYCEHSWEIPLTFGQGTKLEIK ?
Result: 401

Q: I'd like to know its Fold Change to AB-H64. The binder in question is AB-64.5 (antibody, V domains shown) VH: QVQLVQSGAEVKKPGASVKISCKASGYTFTDYNYHWVRQAPGQGLEWIGFIYPSNGITGYAQKFFGRATLTVDNSTSTAYMELSSLRSEDTAVYYCARSDVDYFDYWGQGTLLTVSS VL: DIVLTQSPDSLAVSLGERATINCRASQSVGTSTYSYMHWYQQKPGQPPKLLIKYASNLESGVPDRFSGSGSGTDFTLTISSLQAEDVAVYYCQHSWEIPLTFGQGTKLEIK
Result: 214
